Items are presented alongside their recorded inhibition.
System: Tyrosine-protein kinase ABL1 (Homo sapiens), P00519 [Q252H]
protocol-conditions: at 0.1 µM
attribute-measured: inhibition

- line-notation: "c1ccc(COc2ccc(Nc3ncnc4ccc(-c5ccco5)cc34)cc2)cc1"
  attribute-measured: "inhibition"
  reading: "0.54%"
- line-notation: "NC(=O)c1sc(-n2cnc3ccc(C(F)(F)F)cc32)cc1OCc1ccccc1Br"
  attribute-measured: "inhibition"
  reading: "3.06%"
- line-notation: "COc1ccc(CNC(=O)c2ccc(-c3cc(-c4nnc(C)o4)ccc3C)cc2)cc1"
  attribute-measured: "inhibition"
  reading: "1.38%"
- line-notation: "CCn1c(-c2nonc2N)nc2c(C#CC(C)(C)O)ncc(OC3CCNCC3)c21"
  attribute-measured: "inhibition"
  reading: "0.98%"
- line-notation: "Nc1ncc(-c2cccc(S(N)(=O)=O)c2)c2scc(-c3ccc(F)c(Cl)c3)c12"
  attribute-measured: "inhibition"
  reading: "55.3%"
- line-notation: "[O-][S+]1CCN(Cc2ccc(-c3ccc4ncnc(Nc5ccc(OCc6cccc(F)c6)c(Cl)c5)c4c3)o2)CC1"
  attribute-measured: "inhibition"
  reading: "5.02%"
- line-notation: "Clc1ccc(-c2nn3ncccc3c2-c2ccnc(Nc3ccccc3)n2)cc1"
  attribute-measured: "inhibition"
  reading: "5.9%"
- line-notation: "CN(C)CCOc1ccc(-c2nc(-c3ccncc3)c(-c3ccc4c(c3)CC/C4=N\\O)[nH]2)cc1"
  attribute-measured: "inhibition"
  reading: "10.1%"
- line-notation: "CCOc1ccc2c(-c3ccnc(Nc4cccc(C(F)(F)F)c4)n3)cnn2n1"
  attribute-measured: "inhibition"
  reading: "2.99%"
- line-notation: "COc1ccc(-c2cc(-c3c[nH]nc3-c3ccccn3)ccn2)cc1"
  attribute-measured: "inhibition"
  reading: "10.8%"
- line-notation: "Fc1ccc(-c2nn3ccccc3c2-c2ccncc2)cc1"
  attribute-measured: "inhibition"
  reading: "0.48%"
- line-notation: "COc1ccc(-c2oc3ncnc(N)c3c2-c2ccc(NC(=O)Nc3cc(C(F)(F)F)ccc3F)cc2)cc1"
  attribute-measured: "inhibition"
  reading: "33.6%"
- line-notation: "CS(=O)(=O)CCNCc1coc(-c2ccc3ncnc(Nc4ccc(OCc5ccccc5)cc4)c3c2)c1"
  attribute-measured: "inhibition"
  reading: "2.14%"
- line-notation: "COc1cccc(-c2c[nH]c3c(N/N=C/c4ccncc4)ncnc23)c1"
  attribute-measured: "inhibition"
  reading: "79.8%"
- line-notation: "COc1ccc(-c2cc3c(N)ncnc3o2)cc1"
  attribute-measured: "inhibition"
  reading: "-0.72%"
- line-notation: "COc1cc2c(cc1Nc1nc(Nc3ccsc3C(N)=O)c3cc[nH]c3n1)N(C(=O)CN(C)C)CCC2(C)C"
  attribute-measured: "inhibition"
  reading: "4.15%"
- line-notation: "Cc1cccc(Nc2ncc(-c3ccccc3)o2)c1"
  attribute-measured: "inhibition"
  reading: "2.49%"
- line-notation: "COc1ccc2c(-c3ccnc(Nc4cccc(OC(F)(F)F)c4)n3)cnn2n1"
  attribute-measured: "inhibition"
  reading: "4.44%"
- line-notation: "Fc1ccc(-c2cc(-c3c[nH]nc3-c3ccccn3)ccn2)cc1"
  attribute-measured: "inhibition"
  reading: "5.44%"
- line-notation: "CS(=O)(=O)CCNCc1ccc(-c2ccc3ncnc(Nc4ccc(OCc5ccccc5)c(C(F)(F)F)c4)c3c2)o1"
  attribute-measured: "inhibition"
  reading: "2.84%"
- line-notation: "CC(=O)Nc1cccc(C#Cc2cncnc2Nc2ccc(OCc3cccc(F)c3)c(Cl)c2)c1"
  attribute-measured: "inhibition"
  reading: "2.53%"
- line-notation: "COc1cc(/C=N/Nc2ncnc3[nH]ncc23)ccc1O"
  attribute-measured: "inhibition"
  reading: "47.9%"
- line-notation: "NS(=O)(=O)c1ccc(Nc2ncc(-c3ccccc3)o2)cc1"
  attribute-measured: "inhibition"
  reading: "4.58%"
- line-notation: "CCN1CCC(CC(=O)Nc2n[nH]c3nnc(-c4cccc(F)c4F)cc23)CC1"
  attribute-measured: "inhibition"
  reading: "2.12%"
- line-notation: "CCCN1CCC(c2ccc(Nc3nc(Nc4cc(F)ccc4C(N)=O)c4cc[nH]c4n3)c(OC)c2)CC1"
  attribute-measured: "inhibition"
  reading: "3.87%"
- line-notation: "c1ccc(-c2nc3n(c2-c2ccc4c(c2)OCO4)CCC3)nc1"
  attribute-measured: "inhibition"
  reading: "0.69%"
- line-notation: "COC(=O)c1sc(-n2cnc3cc(OC)c(OC)cc32)cc1OCc1ccccc1C(F)(F)F"
  attribute-measured: "inhibition"
  reading: "6.05%"
- line-notation: "COc1cccc(-n2ncc3c(N/N=C/c4ccc(F)cc4)ncnc32)c1"
  attribute-measured: "inhibition"
  reading: "63.6%"
- line-notation: "FC(F)(F)c1cccc(-c2nn3ncccc3c2-c2ccnc(Nc3ccc4c(c3)OCCO4)n2)c1"
  attribute-measured: "inhibition"
  reading: "9.57%"
- line-notation: "O=C(Nc1n[nH]c2cc(-c3ccc(F)cc3)ccc12)C1CC1"
  attribute-measured: "inhibition"
  reading: "7.91%"
- line-notation: "COC(=O)Nc1nc2ccc(S(=O)(=O)c3ccc(NC(=O)Nc4cc(C(F)(F)F)ccc4F)cc3)cc2[nH]1"
  attribute-measured: "inhibition"
  reading: "2.16%"
- line-notation: "Cc1ccc2c(-c3ccnc(Nc4ccccc4)n3)c(-c3ccc(F)cc3)nn2n1"
  attribute-measured: "inhibition"
  reading: "12%"
- line-notation: "CC(=O)NCc1cccc(C#Cc2cncnc2Nc2ccc(OCc3cccc(F)c3)c(Cl)c2)c1"
  attribute-measured: "inhibition"
  reading: "2.02%"
- line-notation: "CCn1cc(-c2ccnc3[nH]ccc23)c(-c2cccc(NC(=O)Nc3ccc(OCc4ccccc4)cc3)c2)n1"
  attribute-measured: "inhibition"
  reading: "0.71%"
- line-notation: "CCn1c(-c2nonc2N)nc2c(C#CC(C)(C)O)nc(OC[C@H](N)c3ccccc3)cc21"
  attribute-measured: "inhibition"
  reading: "1.23%"
- line-notation: "CNC(=O)c1cc(-c2ccc(F)cc2)cc(-c2ccc(S(=O)(=O)N3CCCC3)cc2)c1N"
  attribute-measured: "inhibition"
  reading: "1.67%"
- line-notation: "CCc1nn2ncccc2c1-c1ccnc(NC2CC2)n1"
  attribute-measured: "inhibition"
  reading: "2.92%"
- line-notation: "CC(C)COC(=O)c1ccc2c(c1)/C(=C/Nc1ccc(S(N)(=O)=O)cc1)C(=O)N2"
  attribute-measured: "inhibition"
  reading: "3.65%"
- line-notation: "COc1cc(Nc2nccc(Nc3ccc4c(C)n[nH]c4c3)n2)cc(OC)c1OC"
  attribute-measured: "inhibition"
  reading: "24.5%"
